All values here come from patent US4921941A.

protocol_description: Plasma concentrations of flutamide active metabolite in rats after single oral doses of various esters (0-4 hours), gas-liquid chromatography
Type: in vivo, male Sprague Dawley rats
assay_context: rat, oral; 0-4 hour area relative to flutamide = 1.00
quantity: Relative Rank (0-4 hour area)

>>> quantitative_result("CC(C)(OC(=O)[C@@H]1CCCN1C(=O)CNC(=O)[C@@H](N)CCCCN)C(=O)Nc1ccc([N+](=O)[O-])c(C(F)(F)F)c1.Cl.Cl [lys--gly--pro]")
2.66
>>> quantitative_result("C[C@H](N)C(=O)NCC(=O)N(C)CC(=O)OC(C)(C)C(=O)Nc1ccc([N+](=O)[O-])c(C(F)(F)F)c1 [ala--gly--sar]")
2.09
>>> quantitative_result("CC(C)C(=O)Nc1ccc([N+](=O)[O-])c(C(F)(F)F)c1 [H (flutamide), reference compound]")
1.00
>>> quantitative_result("CN(CC(=O)OC(C)(C)C(=O)Nc1ccc([N+](=O)[O-])c(C(F)(F)F)c1)C(=O)CNC(=O)[C@@H](N)CCCCN [lys--gly--sar]")
1.44
>>> quantitative_result("CNCC(=O)OC(C)(C)C(=O)Nc1ccc([N+](=O)[O-])c(C(F)(F)F)c1 [sar]")
1.52
